Protocol Text: Fraction unbound in rat brain homogenates
Type: ADME, tissue-based
Run Parameters: brain homogenate
Quantity: fraction unbound

> print(dat)
                                   compound          quantity  meas.value
1  COc1cc(C(O)P(=O)(O)CC[C@H](N)C(=O)O)cc([N+](=O)[O-])c1O (mixture of isomers)  fraction unbound      > 0.99

----------
Protocol Text: Cmax in Sprague-Dawley rat at 10 mg/kg, po
Format: ADME, organism-based
Parameters: dose 10 mg/kg, route oral
Run Parameters: in vivo
Quantity: Cmax (ng/mL)

> print(dat)
                                   compound  quantity.unit  meas.value
1  COc1cc(C(O)P(=O)(O)CC[C@H](N)C(=O)O)cc([N+](=O)[O-])c1O (mixture of isomers)          ng/mL          92
